# Tested on: MDA-MB-157
# TEST METHOD NOTES: cells
# Type: functional, cell-based, Homo sapiens
# SETTINGS: Homo sapiens, MDA-MB-157
# Description: SANGER: Inhibition of human MDA-MB-157 cell growth in a cell viability assay.
pIC50: −log10 of the molar value.
Here the recorded pIC50 is given for each entry.
PROPERTY LABEL: pIC50

INSERT INTO measurements (smiles_string, recorded_result) VALUES
  ('COc1ccc(C2=N[C@@H](c3ccc(Cl)cc3)[C@@H](c3ccc(Cl)cc3)N2C(=O)N2CCNC(=O)C2)c(OC(C)C)c1', '< 5.10'),
  ('O=C(c1cc(Cc2n[nH]c(=O)c3ccccc23)ccc1F)N1CCN(C(=O)C2CC2)CC1', '< 5.30'),
  ('CC(=O)O[C@@H]1[C@@H](OC(C)=O)[C@@H](O)[C@H](Oc2c(-c3ccc(O)cc3)oc3cc(O)cc(O)c3c2=O)O[C@H]1C', '< 5.00'),
  ('COc1ccc(-c2ccc3c(N4CCOC[C@@H]4C)nc(N4CCOC[C@@H]4C)nc3n2)cc1CO', 6.17),
  ('Cn1cncc1[C@@](N)(c1ccc(Cl)cc1)c1ccc2c(c1)c(-c1cccc(Cl)c1)cc(=O)n2C', 4.83),
  ('C=CCNC1=C2C[C@@H](C)C[C@H](OC)[C@H](O)[C@@H](C)/C=C(\C)[C@H](OC(N)=O)[C@@H](OC)/C=C\C=C(/C)C(=O)NC(=CC1=O)C2=O', 6.74),
  ('CN(C)C/C=C/C(=O)Nc1cc2c(Nc3ccc(F)c(Cl)c3)ncnc2cc1O[C@H]1CCOC1', '< 6.30'),
  ('C=CCc1cccc(/C=N/NC(=O)CN2CCN(Cc3ccccc3)CC2)c1O', '< 5.59');

----------
In this section we review reported IC50 values for a set of compounds.
# Tested on: NUGC-3;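 further: growth inhibition of human NUGC-3 cells, read out with a cell viability assay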
# TEST METHOD NOTES: cells
# Format: functional, cell-based, Homo sapiens
# SETTINGS: Homo sapiens, NUGC-3
# Description: SANGER: Inhibition of human NUGC-3 cell growth in a cell viability assay.
PROPERTY LABEL: IC50

INSERT INTO results (compound, target_entity, property_label, recorded_result) VALUES
  ('Cc1ccc(Nc2nccc(N(C)c3ccc4c(C)n(C)nc4c3)n2)cc1S(N)(=O)=O [PAZOPANIB]', 'NUGC-3', 'IC50', '> 8 µM'),
  ('O=C(c1cc(Cc2n[nH]c(=O)c3ccccc23)ccc1F)N1CCN(C(=O)C2CC2)CC1 [OLAPARIB]', 'NUGC-3', 'IC50', '> 5 µM'),
  ('Cc1cnc(-c2cnc(NCCNc3ccc(C#N)cn3)nc2-c2ccc(Cl)cc2Cl)[nH]1 [LADUVIGLUSIB]', 'NUGC-3', 'IC50', '> 2.56 µM'),
  ('Cn1cc(C2=C(c3ccc(Cl)cc3Cl)C(=O)NC2=O)c2ccccc21 [SB-216763]', 'NUGC-3', 'IC50', '> 10 µM'),
  ('COc1cc([C@@H]2c3cc4c(cc3[C@@H](O[C@@H]3O[C@@H]5CO[C@@H](C)O[C@H]5[C@H](O)[C@H]3O)[C@H]3COC(=O)[C@H]23)OCO4)cc(OC)c1O [ETOPOSIDE]', 'NUGC-3', 'IC50', '0.981 µM'),
  ('O=C(NOCC1CC1)c1ccc(F)c(F)c1Nc1ccc(I)cc1Cl [CI-1040]', 'NUGC-3', 'IC50', '5.49 µM');
